All figures here come from patent US4849207A.

Each item that follows carries a reported excited fluorescence at 600 to 900 nm relative to NADH peak at 470 nm (=1): Kidney.
Test system: cancer cells of the pancreas
Test: Laser irradiation to an extracted organ (excited fluorescent spectrum)
Assay type: in vivo, golden hamsters
Conditions: golden hamster, 5 mg i.v., after 24 hours, kidney
Lab note: jot down the number only; don't add units.

| Molecule | Recorded Result |
| --- | --- |
| C=Cc1c(C)c2cc3nc(c4c5[nH]c(cc6nc(cc1[nH]2)C(C)=C6CC)c(C)c5C(=O)C4C(=O)OCCOC(=O)CN(CCN(CCN(CC(=O)O)CC(=O)O)CC(=O)O)CC(=O)O)C(CCC(=O)O)C3C (centres unmarked) [DTPA--10EG PPB] | 0.43 |
| CCC1=C(C)c2cc3[nH]c(cc4nc(c5c6[nH]c(cc1n2)c(C)c6C(=O)C5C(=O)OCCOC(=O)C1C(=O)c2c(C)c5cc6nc(cc7[nH]c(cc8nc(c1c2[nH]5)C(CCC(=O)O)C8C)c(C)c7C(C)I)C(C)=C6CC)C(CCC(=O)O)C4C)c(C)c3C(C)I (centres unmarked) | 0.07 |
| C=Cc1c(C)c2cc3nc(c4c5[nH]c(cc6nc(cc1[nH]2)C(C)=C6CC)c(C)c5C(=O)C4)C(CCC(=O)OCCOC(=O)CN(CCN(CCN(CC(=O)O)CC(=O)O)CC(=O)O)CC(=O)O)C3C (centres unmarked) | 0.25 |
| C=Cc1c(C)c2cc3nc(c4c5[nH]c(cc6nc(cc1[nH]2)C(C)=C6CC)c(C)c5C(=O)C4C(=O)OCCOC(=O)CN(CCN(CCN(CC(=O)O)CC(=O)O)CC(=O)O)CC(=O)O)C(CCC(=O)OC)C3C (centres unmarked) [DTPA--10EG PPB--Me] | 0.37 |

# input for lookup
Consider the molecule C=Cc1c(C)c2cc3nc(c4c5[nH]c(cc6nc(cc1[nH]2)C(C)=C6CC)c(C)c5C(=O)C4C(=O)OC)C(CCC(=O)OCCOC(=O)CN(CCN(CCN(CC(=O)O)CC(=O)O)CC(=O)O)CC(=O)O)C3C (centres unmarked) and give its recorded excited fluorescence at 600 to 900 nm relative to NADH peak at 470 nm (=1): Kidney. 0.32

====

Tested on: cancer cells of the pancreas
Test: Laser irradiation to an extracted organ (excited fluorescent spectrum)
Assay type: in vivo, golden hamsters
Details: golden hamster, 5 mg i.v., after 24 hours, liver
Result Type: excited fluorescence at 600 to 900 nm relative to NADH peak at 470 nm (=1): Liver
# answer = number (no unit)

| Molecule | Recorded Result |
| --- | --- |
| C=Cc1c(C)c2cc3nc(c4c5[nH]c(cc6nc(cc1[nH]2)C(C)=C6CC)c(C)c5C(=O)C4)C(CCC(=O)OCCOC(=O)CN(CCN(CCN(CC(=O)O)CC(=O)O)CC(=O)O)CC(=O)O)C3C (centres unmarked) [DTPA--7EG pyroPPB] | 0.87 |
| CCC1=C(C)c2cc3[nH]c(cc4nc(c5c6[nH]c(cc1n2)c(C)c6C(=O)C5C(=O)OCCOC(=O)C1C(=O)c2c(C)c5cc6nc(cc7[nH]c(cc8nc(c1c2[nH]5)C(CCC(=O)O)C8C)c(C)c7C(C)I)C(C)=C6CC)C(CCC(=O)O)C4C)c(C)c3C(C)I (centres unmarked) [I2 PPB Dimer] | 0.31 |
| C=Cc1c(C)c2cc3nc(c4c5[nH]c(cc6nc(cc1[nH]2)C(C)=C6CC)c(C)c5C(=O)C4C(=O)OCCOC(=O)CN(CCN(CCN(CC(=O)O)CC(=O)O)CC(=O)O)CC(=O)O)C(CCC(=O)O)C3C (centres unmarked) [DTPA--10EG PPB] | 0.77 |
| C=Cc1c(C)c2cc3nc(c4c5[nH]c(cc6nc(cc1[nH]2)C(C)=C6CC)c(C)c5C(=O)C4C(=O)OCCOC(=O)CN(CCN(CCN(CC(=O)O)CC(=O)O)CC(=O)O)CC(=O)O)C(CCC(=O)OC)C3C (centres unmarked) [DTPA--10EG PPB--Me] | 0.69 |

Let us examine a further case.
Read the entry C=Cc1c(C)c2cc3nc(c4c5[nH]c(cc6nc(cc1[nH]2)C(C)=C6CC)c(C)c5C(=O)C4C(=O)OC)C(CCC(=O)OCCOC(=O)CN(CCN(CCN(CC(=O)O)CC(=O)O)CC(=O)O)CC(=O)O)C3C (centres unmarked) [DTPA--7EG PPB] and write its reported excited fluorescence at 600 to 900 nm relative to NADH peak at 470 nm (=1): Liver. 0.33

====

excited fluorescence at 600 to 900 nm relative to NADH peak at 470 nm (=1): Cancer values for the compounds below.
System: cancer cells of the pancreas
Assay: Laser irradiation to an extracted organ (excited fluorescent spectrum)
Format: in vivo, golden hamsters
Settings: golden hamster, 5 mg i.v., after 24 hours, cancer

Query excited fluorescence at 600 to 900 nm relative to NADH peak at 470 nm (=1): Cancer for C=Cc1c(C)c2cc3nc(c4c5[nH]c(cc6nc(cc1[nH]2)C(C)=C6CC)c(C)c5C(=O)C4C(=O)OCCOC(=O)CN(CCN(CCN(CC(=O)O)CC(=O)O)CC(=O)O)CC(=O)O)C(CCC(=O)O)C3C (centres unmarked) [DTPA--10EG PPB] 1.20

Fill in reported excited fluorescence at 600 to 900 nm relative to NADH peak at 470 nm (=1): Cancer for this entry: C=Cc1c(C)c2cc3nc(c4c5[nH]c(cc6nc(cc1[nH]2)C(C)=C6CC)c(C)c5C(=O)C4C(=O)OC)C(CCC(=O)OCCOC(=O)CN(CCN(CCN(CC(=O)O)CC(=O)O)CC(=O)O)CC(=O)O)C3C (centres unmarked) 0.53

====

Tested on: cancer cells of the pancreas
Experiment: Laser irradiation to an extracted organ (excited fluorescent spectrum)
Type: in vivo, golden hamsters
Conditions: golden hamster, 5 mg i.v., after 24 hours, serum
Please assign n whenever excited fluorescence at 600 to 900 nm relative to NADH peak at 470 nm (=1): Serum is at or above 0.5, and y whenever it is below.

Field: example entries. Status: answers known.
| Molecule | Label Class |
| --- | --- |
| C=Cc1c(C)c2cc3nc(c4c5[nH]c(cc6nc(cc1[nH]2)C(C)=C6CC)c(C)c5C(=O)C4C(=O)OCCOC(=O)CN(CCN(CCN(CC(=O)O)CC(=O)O)CC(=O)O)CC(=O)O)C(CCC(=O)O)C3C (centres unmarked) [DTPA--10EG PPB] | n |
| C=Cc1c(C)c2cc3nc(c4c5[nH]c(cc6nc(cc1[nH]2)C(C)=C6CC)c(C)c5C(=O)C4C(=O)OC)C(CCC(=O)OCCOC(=O)CN(CCN(CCN(CC(=O)O)CC(=O)O)CC(=O)O)CC(=O)O)C3C (centres unmarked) | y |
| CCC1=C(C)c2cc3[nH]c(cc4nc(c5c6[nH]c(cc1n2)c(C)c6C(=O)C5C(=O)OCCOC(=O)C1C(=O)c2c(C)c5cc6nc(cc7[nH]c(cc8nc(c1c2[nH]5)C(CCC(=O)O)C8C)c(C)c7C(C)I)C(C)=C6CC)C(CCC(=O)O)C4C)c(C)c3C(C)I (centres unmarked) | n |

Say whether its excited fluorescence at 600 to 900 nm relative to NADH peak at 470 nm (=1): Serum is strictly beneath 0.5. Entry: C=Cc1c(C)c2cc3nc(c4c5[nH]c(cc6nc(cc1[nH]2)C(C)=C6CC)c(C)c5C(=O)C4)C(CCC(=O)OCCOC(=O)CN(CCN(CCN(CC(=O)O)CC(=O)O)CC(=O)O)CC(=O)O)C3C (centres unmarked) y

hey, is excited fluorescence at 600 to 900 nm relative to NADH peak at 470 nm (=1): Serum for C=Cc1c(C)c2cc3nc(c4c5[nH]c(cc6nc(cc1[nH]2)C(C)=C6CC)c(C)c5C(=O)C4C(=O)OCCOC(=O)CN(CCN(CCN(CC(=O)O)CC(=O)O)CC(=O)O)CC(=O)O)C(CCC(=O)OC)C3C (centres unmarked) [DTPA--10EG PPB--Me] lower than 0.5 or not? n

====

# maps each entry to its excited fluorescence at 600 to 900 nm relative to NADH peak at 470 nm (=1): Lung
Tested on: cancer cells of the pancreas
Assay: Laser irradiation to an extracted organ (excited fluorescent spectrum)
Format: in vivo, golden hamsters
Details: golden hamster, 5 mg i.v., after 24 hours, lung
Lab note: jot down the number only; don't add units.

| Molecule | Tested System | Recorded Result |
| --- | --- | --- |
| C=Cc1c(C)c2cc3nc(c4c5[nH]c(cc6nc(cc1[nH]2)C(C)=C6CC)c(C)c5C(=O)C4)C(CCC(=O)OCCOC(=O)CN(CCN(CCN(CC(=O)O)CC(=O)O)CC(=O)O)CC(=O)O)C3C (stereo not drawn) | cancer cells of the pancreas | 1.23 |
| C=Cc1c(C)c2cc3nc(c4c5[nH]c(cc6nc(cc1[nH]2)C(C)=C6CC)c(C)c5C(=O)C4C(=O)OC)C(CCC(=O)OCCOC(=O)CN(CCN(CCN(CC(=O)O)CC(=O)O)CC(=O)O)CC(=O)O)C3C (stereo not drawn) | cancer cells of the pancreas | 0.30 |

Next item in the queue.
Provide measured excited fluorescence at 600 to 900 nm relative to NADH peak at 470 nm (=1): Lung value, entry: C=Cc1c(C)c2cc3nc(c4c5[nH]c(cc6nc(cc1[nH]2)C(C)=C6CC)c(C)c5C(=O)C4C(=O)OCCOC(=O)CN(CCN(CCN(CC(=O)O)CC(=O)O)CC(=O)O)CC(=O)O)C(CCC(=O)OC)C3C (stereo not drawn) [DTPA--10EG PPB--Me] 0.47
